# Potency annotations
Target: Rap guanine nucleotide exchange factor 4 (Homo sapiens)
Assay: Confirmatory qHTS for agonist of cAMP-regulated guanine nucleotide exchange factor 4 (EPAC2) (AID 1645884); further: potency means the concentration at half of the fitted maximal effect; nearly all actives have a fitted effect of over 65% in size
Conditions: EPAC2 GEF activity, Rap1B-BODIPY-GDP fluorescence; series mostly up to 154 µM
Records with an inconclusive call do not appear. Active and inactive are the calls of the source. The call rests on the fitted dose curve; in most records, active means well fitted activation curve with a large enough effect; inconclusive means small, poorly fitted or top-dose-only effect; inactive means no such curve, though single readings can be large or run the other way.

Use the examples below as a reference point.
Nc1ccc(-c2c3ccc(=O)cc-3oc3cc(O)ccc23)c(C(=O)O)c1    100 µM (active)
OCC[n+]1ccc(/C=C/c2c[nH]c3ccccc23)cc1    100 µM (active)
COc1ccccc1/C=C/C=C1\Oc2c(ccc(O)c2CN(C)C)C1=O    112 µM (active)
N#C/C(=C/c1ccc(N2CCOCC2)o1)c1nc2ccccc2[nH]1    89.1 µM (active)
CCCC1C2CN(C(C)C)CC=C2C(C#N)=C(N)C1(C#N)C#N (stereo unspecified)    56.2 µM (active)

QUERY: Entry `CCN(CC)c1ccc2oc(=O)c(C)nc2c1` : reported Potency = ?
RESULT: 100 µM (active)

QUERY: Fill in the blank: the reported Potency of `COc1ccc(-c2onc3ccc(C(C)=O)cc23)cc1` is ____.
RESULT: 79.4 µM (active)

QUERY: Can you share its Potency? I mean this compound: `NC(=O)c1cc2ccc(O)cc2oc1=NCc1ccccc1`
RESULT: 112 µM (active)

QUERY: # lookup: Potency of `COc1ccc(N/C=C2\CCc3ccccc3C2=O)cc1`
RESULT: 100 µM (active)

QUERY: If you can, please state the reported Potency value of `Cc1ccc2c(c1)c(/C=C/c1cc[n+](C)cc1)c(C)n2C` .
RESULT: 100 µM (active)

QUERY: Query: Potency; subject: `CCN1C/C(=C/c2ccc(N3CCOCC3)cc2)C(=O)/C(=C/c2ccc(N3CCOCC3)cc2)C1`
RESULT: 100 µM (active)
